From: the NIST ThermoML archive (doi:10.1021/acs.jced.7b00503)

# measurement-notes: wn = mass fraction of the nth substance listed
# run-parameters: 293.15 K, Pendant drop shape, w1 = 0.25
Numbers after ± are expanded uncertainties.
endpoint-label: surface tension liquid-gas

For the compound [Br-].[K+] [potassium bromide] + O , what surface tension liquid-gas is on record?
76.16 ± 0.86 mN/m

For the compound [Cl-].[Na+] [sodium chloride] + O , what surface tension liquid-gas is on record?
81.95 ± 0.89 mN/m

For the compound [Br-].[Na+] [sodium bromide] + O , what surface tension liquid-gas is on record?
78.93 ± 0.88 mN/m

For the compound [I-].[Na+] [sodium iodide] + O , what surface tension liquid-gas is on record?
75.15 ± 0.86 mN/m

----------
Please respond with reported surface tension liquid-gas for every item in the list.
# measurement-notes: wn = mass fraction of the nth substance listed
# run-parameters: 323.15 K, Pendant drop shape, w1 = 0.2
± gives the expanded uncertainty stated by the source.
Answer with the figure and its unit, nothing else.

For the compound [Br-].[Na+] [sodium bromide] + O , what surface tension liquid-gas is on record?
72.6 ± 0.84 mN/m

For the compound [I-].[Na+] [sodium iodide] + O , what surface tension liquid-gas is on record?
70.35 ± 0.83 mN/m

For the compound [Br-].[K+] [potassium bromide] + O , what surface tension liquid-gas is on record?
70.82 ± 0.83 mN/m

For the compound [Cl-].[K+] [potassium chloride] + O , what surface tension liquid-gas is on record?
73 ± 0.85 mN/m

For the compound [Cl-].[Na+] [sodium chloride] + O , what surface tension liquid-gas is on record?
75.71 ± 0.86 mN/m

----------
Please respond with reported surface tension liquid-gas for every item in the list.
# measurement-notes: wn = mass fraction of the nth substance listed
# run-parameters: 333.15 K, Pendant drop shape, w1 = 0.15
Expressed in mN/m, but write only the number.

For the compound [Br-].[Na+] [sodium bromide] + O , what surface tension liquid-gas is on record?
69.67

For the compound [Cl-].[K+] [potassium chloride] + O , what surface tension liquid-gas is on record?
69.83

For the compound [Cl-].[Na+] [sodium chloride] + O , what surface tension liquid-gas is on record?
72.22

For the compound [Br-].[K+] [potassium bromide] + O , what surface tension liquid-gas is on record?
68.49

For the compound [I-].[Na+] [sodium iodide] + O , what surface tension liquid-gas is on record?
68.42

----------
Please respond with reported surface tension liquid-gas for every item in the list.
# measurement-notes: wn = mass fraction of the nth substance listed
# run-parameters: 333.15 K, Pendant drop shape, w1 = 0.25
Numbers after ± are expanded uncertainties.
Answer with the figure and its unit, nothing else.

For the compound [Br-].[Na+] [sodium bromide] + O , what surface tension liquid-gas is on record?
72.31 ± 0.84 mN/m

For the compound [Cl-].[Na+] [sodium chloride] + O , what surface tension liquid-gas is on record?
77.14 ± 0.87 mN/m

For the compound [Br-].[K+] [potassium bromide] + O , what surface tension liquid-gas is on record?
70.24 ± 0.83 mN/m

For the compound [I-].[Na+] [sodium iodide] + O , what surface tension liquid-gas is on record?
69.43 ± 0.83 mN/m

----------
# measurement-notes: wn = mass fraction of the nth substance listed
# run-parameters: 303.15 K, Pendant drop shape, w1 = 0.15
endpoint-label: surface tension liquid-gas (mN/m)
Expressed in mN/m, but write only the number.

For the compound [Cl-].[K+] [potassium chloride] + O , what surface tension liquid-gas is on record?
75.18

For the compound [Br-].[K+] [potassium bromide] + O , what surface tension liquid-gas is on record?
73.27

For the compound [Br-].[Na+] [sodium bromide] + O , what surface tension liquid-gas is on record?
74.83

For the compound [Cl-].[Na+] [sodium chloride] + O , what surface tension liquid-gas is on record?
76.11

For the compound [I-].[Na+] [sodium iodide] + O , what surface tension liquid-gas is on record?
72.79

----------
Please respond with reported surface tension liquid-gas for every item in the list.
# measurement-notes: wn = mass fraction of the nth substance listed
# run-parameters: 303.15 K, Pendant drop shape, w1 = 0.25
Expressed in mN/m, but write only the number.

For the compound [Cl-].[Na+] [sodium chloride] + O , what surface tension liquid-gas is on record?
80.8

For the compound [I-].[Na+] [sodium iodide] + O , what surface tension liquid-gas is on record?
73.8

For the compound [Br-].[K+] [potassium bromide] + O , what surface tension liquid-gas is on record?
74.82

For the compound [Br-].[Na+] [sodium bromide] + O , what surface tension liquid-gas is on record?
77.25

----------
# measurement-notes: wn = mass fraction of the nth substance listed
# run-parameters: 333.15 K, Pendant drop shape, w1 = 0.05
Please respond with reported surface tension liquid-gas for every item in the list.
Expressed in mN/m, but write only the number.

For the compound [I-].[Na+] [sodium iodide] + O , what surface tension liquid-gas is on record?
67.4

For the compound [I-].[K+] [potassium iodide] + O , what surface tension liquid-gas is on record?
69.98

For the compound [Cl-].[K+] [potassium chloride] + O , what surface tension liquid-gas is on record?
67.7

For the compound [Br-].[K+] [potassium bromide] + O , what surface tension liquid-gas is on record?
67.31

For the compound [Br-].[Na+] [sodium bromide] + O , what surface tension liquid-gas is on record?
67.28

For the compound [Cl-].[Na+] [sodium chloride] + O , what surface tension liquid-gas is on record?
68.24

----------
Please respond with reported surface tension liquid-gas for every item in the list.
# measurement-notes: wn = mass fraction of the nth substance listed
# run-parameters: 303.15 K, Pendant drop shape, w1 = 0.05
Expressed in mN/m, but write only the number.

For the compound [Br-].[K+] [potassium bromide] + O , what surface tension liquid-gas is on record?
72.42

For the compound [Cl-].[Na+] [sodium chloride] + O , what surface tension liquid-gas is on record?
72.56

For the compound [Cl-].[K+] [potassium chloride] + O , what surface tension liquid-gas is on record?
72.44

For the compound [I-].[Na+] [sodium iodide] + O , what surface tension liquid-gas is on record?
71.66

For the compound [Br-].[Na+] [sodium bromide] + O , what surface tension liquid-gas is on record?
72.43

For the compound [I-].[K+] [potassium iodide] + O , what surface tension liquid-gas is on record?
74

----------
# measurement-notes: wn = mass fraction of the nth substance listed
# run-parameters: 333.15 K, Pendant drop shape, w1 = 0.1
endpoint-label: surface tension liquid-gas (mN/m)
Expressed in mN/m, but write only the number.

For the compound [Br-].[K+] [potassium bromide] + O , what surface tension liquid-gas is on record?
67.95

For the compound [Cl-].[Na+] [sodium chloride] + O , what surface tension liquid-gas is on record?
70.14

For the compound [I-].[K+] [potassium iodide] + O , what surface tension liquid-gas is on record?
74.36

For the compound [Br-].[Na+] [sodium bromide] + O , what surface tension liquid-gas is on record?
68.4

For the compound [I-].[Na+] [sodium iodide] + O , what surface tension liquid-gas is on record?
67.93

For the compound [Cl-].[K+] [potassium chloride] + O , what surface tension liquid-gas is on record?
68.76

----------
# measurement-notes: wn = mass fraction of the nth substance listed
# run-parameters: 333.15 K, Pendant drop shape, w1 = 0.2
endpoint-label: surface tension liquid-gas (mN/m)
Expressed in mN/m, but write only the number.

For the molecule [Br-].[Na+] [sodium bromide] + O , what surface tension liquid-gas is on record?
70.8

For the molecule [Cl-].[K+] [potassium chloride] + O , what surface tension liquid-gas is on record?
71.1

For the molecule [Cl-].[Na+] [sodium chloride] + O , what surface tension liquid-gas is on record?
74.52

For the molecule [Br-].[K+] [potassium bromide] + O , what surface tension liquid-gas is on record?
69.25

For the molecule [I-].[Na+] [sodium iodide] + O , what surface tension liquid-gas is on record?
68.86

----------
Please respond with reported surface tension liquid-gas for every item in the list.
# measurement-notes: wn = mass fraction of the nth substance listed
# run-parameters: 293.15 K, Pendant drop shape, w1 = 0.2
Expressed in mN/m, but write only the number.

For the compound [I-].[Na+] [sodium iodide] + O , what surface tension liquid-gas is on record?
74.7

For the compound [Br-].[K+] [potassium bromide] + O , what surface tension liquid-gas is on record?
75.3

For the compound [Br-].[Na+] [sodium bromide] + O , what surface tension liquid-gas is on record?
77.4

For the compound [Cl-].[K+] [potassium chloride] + O , what surface tension liquid-gas is on record?
77.99

For the compound [Cl-].[Na+] [sodium chloride] + O , what surface tension liquid-gas is on record?
79.82
